# tested on: Angiotensin II receptor (AT-1) type-1 (Rattus norvegicus, UniProt P29089+P25095)
# assay text: Inhibition of [3H]angiotensin II binding to rat adrenal cortex membrane containing angiotensin II receptor, type 1
# Format: tissue-based
assay readout: Ki (nM)
Report as a plain number; the unit nM is understood.

Answered cases to consult:
// map "CCCCc1nc(-c2c(C)ncc(C)[n+]2[O-])cn1Cc1ccc(-c2ccccc2-c2nn[nH]n2)cc1" to recorded Ki (system: Angiotensin II receptor (AT-1) type-1 (Rattus norvegicus, UniProt P29089+P25095)) 2.5

// map "CCCCc1nc(-c2ccc(C(=O)OC)nn2)cn1Cc1ccc(-c2ccccc2-c2nn[nH]n2)cc1" to recorded Ki (system: Angiotensin II receptor (AT-1) type-1 (Rattus norvegicus, UniProt P29089+P25095)) 8.8

// map "CCCCc1nc(-c2ccc(C(=O)OC)[n+]([O-])n2)cn1Cc1ccc(-c2ccccc2-c2nn[nH]n2)cc1" to recorded Ki (system: Angiotensin II receptor (AT-1) type-1 (Rattus norvegicus, UniProt P29089+P25095)) 54

// map "CCCCc1nc(-c2nc(C)ccc2OC)cn1Cc1ccc(-c2ccccc2-c2nn[nH]n2)cc1" to recorded Ki (system: Angiotensin II receptor (AT-1) type-1 (Rattus norvegicus, UniProt P29089+P25095)) 250

Continuing:
// map "CCCCc1nc(-c2cc(C(=O)OC)cc(C)[n+]2[O-])cn1Cc1ccc(-c2ccccc2-c2nn[nH]n2)cc1" to recorded Ki (system: Angiotensin II receptor (AT-1) type-1 (Rattus norvegicus, UniProt P29089+P25095)) 180

// map "CCCCc1nc(-c2ncccc2C(=O)OC)cn1Cc1ccc(-c2ccccc2-c2nn[nH]n2)cc1" to recorded Ki (system: Angiotensin II receptor (AT-1) type-1 (Rattus norvegicus, UniProt P29089+P25095)) 40

// map "CCCCc1nc(-c2nccnc2C(=O)OC)cn1Cc1ccc(-c2ccccc2-c2nn[nH]n2)cc1" to recorded Ki (system: Angiotensin II receptor (AT-1) type-1 (Rattus norvegicus, UniProt P29089+P25095)) 90

// map "CCCCc1nc(-c2cnc(C(=O)OC)nc2C)cn1Cc1ccc(-c2ccccc2-c2nn[nH]n2)cc1" to recorded Ki (system: Angiotensin II receptor (AT-1) type-1 (Rattus norvegicus, UniProt P29089+P25095)) 70

// map "CCCCc1nc(-c2cncnc2)cn1Cc1ccc(-c2ccccc2-c2nn[nH]n2)cc1" to recorded Ki (system: Angiotensin II receptor (AT-1) type-1 (Rattus norvegicus, UniProt P29089+P25095)) 42

###

# tested on: Angiotensin II receptor (AT-1) type-1 (Rattus norvegicus, UniProt P29089+P25095)
# assay text: Inhibition of [3H]angiotensin II binding to rat adrenal cortex membrane containing angiotensin II receptor, type 1
# Assay type: tissue-based
assay readout: Ki (nM)
Report as a plain number; the unit nM is understood.

Entry "CCCCc1nc(-c2nc(C)ccc2C(=O)OC)cn1Cc1ccc(-c2ccccc2-c2nn[nH]n2)cc1" has what Ki? 32

Entry "CCCCc1nc(-c2c(C(=O)OC)c(C)cc(C)[n+]2[O-])cn1Cc1ccc(-c2ccccc2-c2nn[nH]n2)cc1" has what Ki? 9.1

Entry "CCCCc1nc(-c2cccc(OC)n2)cn1Cc1ccc(-c2ccccc2-c2nn[nH]n2)cc1" has what Ki? 25

###

# tested on: Angiotensin II receptor (AT-1) type-1 (Rattus norvegicus, UniProt P29089+P25095)
# assay text: Inhibition of [3H]angiotensin II binding to rat adrenal cortex membrane containing angiotensin II receptor, type 1
# Type: tissue-based
Classify: y when Ki is strictly less than 40 nM; n when Ki is not.

Example entries begin here.
# check: Ki < 40 nM for "CCCCc1nc(-c2cnc[n+]([O-])c2)cn1Cc1ccc(-c2ccccc2-c2nn[nH]n2)cc1" y

# check: Ki < 40 nM for "CCCCc1nc(-c2ncccc2OC)cn1Cc1ccc(-c2ccccc2-c2nn[nH]n2)cc1" n

# check: Ki < 40 nM for "CCCCc1nc(-c2cccnc2C(=O)OC)cn1Cc1ccc(-c2ccccc2-c2nn[nH]n2)cc1" n

# check: Ki < 40 nM for "CCCCc1nc(-c2ccc(C)nn2)cn1Cc1ccc(-c2ccccc2-c2nn[nH]n2)cc1" y

Consider now this further compound.
# check: Ki < 40 nM for "CCCCc1nc(-c2ccc(C)n[n+]2[O-])cn1Cc1ccc(-c2ccccc2-c2nn[nH]n2)cc1" n
